Please provide measured activation at 1 µM for the entries that follow.
# target_under_test: glucocerebrosidase (Gcase) (Homo sapiens, UniProt P04062)
# Sequence (P04062 40-536): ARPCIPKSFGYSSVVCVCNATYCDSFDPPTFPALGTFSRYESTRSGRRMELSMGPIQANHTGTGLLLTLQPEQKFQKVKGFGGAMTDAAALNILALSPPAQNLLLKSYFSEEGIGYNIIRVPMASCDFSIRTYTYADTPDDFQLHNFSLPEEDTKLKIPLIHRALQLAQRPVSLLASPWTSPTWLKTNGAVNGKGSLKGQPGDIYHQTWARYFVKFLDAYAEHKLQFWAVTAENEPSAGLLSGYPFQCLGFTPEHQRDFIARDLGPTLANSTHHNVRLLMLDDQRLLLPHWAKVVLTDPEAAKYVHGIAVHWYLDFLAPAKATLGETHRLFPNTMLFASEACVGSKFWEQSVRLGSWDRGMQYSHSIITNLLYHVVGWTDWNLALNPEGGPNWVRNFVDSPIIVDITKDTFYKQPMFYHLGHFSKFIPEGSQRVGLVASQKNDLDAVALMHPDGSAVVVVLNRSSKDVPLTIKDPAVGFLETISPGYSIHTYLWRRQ
# test: Glucocerebrosidase (Gcase) activation assay, 4-methylumbelliferyl-beta-D-glucopyranoside substrate, with saposin C
# Assay type: biochemical
# condition_set: 1 μM test compound; 10 nM GCase, 100 nM saposin C, pH 4.7; read-out: Percent Gcase Activation, 1 μM Test Compound

A selection of reference data follows.
CCCCCO[C@H]1CC[C@H](NC(=O)c2cccc3oc(C)nc23)CC1 | < 5%
Cc1ccc(C(=O)NC(C)(C)C2CC2)c2nccn12 | > 20%
Cc1cn2ccnc(C(=O)Nc3ccc4c(c3)CCC4)c2n1 | 5 to 20%

# ---- query compound ----
Item under review: `C#Cc1ccc(NC(=O)c2nccn3cc(C)nc23)cc1` . Reported activation at 1 µM?
5 to 20%

----------
# test: Compound solubility in water
endpoint_name: solubility (µg/mL)
Answers are plain numbers, in µg/mL.

Worked examples follow.
CCC(NC(=O)c1ccc(C)n2ccnc12)c1ccccc1 (centres unmarked) | 6.2
Cc1ccc(C(=O)Nc2ccc3c(c2)CCC3)c2nccn12 | 0.4

Quick request: solubility for each listed item, please.
1. Cc1cn2ccnc(C(=O)NC3CCCc4ccccc43)c2n1 (centres unmarked)
2. Cc1nc2c(C(=O)NC3CCCc4ccccc43)cccc2o1 (centres unmarked)
3. CCC(NC(=O)c1nccn2cc(C)nc12)c1ccccc1 (centres unmarked)
4. CCCCCO[C@H]1CC[C@H](NC(=O)c2cccc3oc(C)nc23)CC1
5. CCC(NC(=O)c1cccc2oc(C)nc12)c1ccccc1 (centres unmarked)
6. CCCCCO[C@H]1CC[C@H](NC(=O)c2ccc(C)n3ccnc23)CC1

1. 7.7
2. 1.5
3. 10.9
4. 1.6
5. 13.2
6. 14.2

----------
# target_under_test: glucocerebrosidase (Gcase) (Homo sapiens, UniProt P04062)
# test: Glucocerebrosidase (Gcase) activation assay, 4-methylumbelliferyl-beta-D-glucopyranoside substrate, with saposin C
# Assay type: biochemical
# condition_set: 1 μM test compound; 10 nM GCase, 100 nM saposin C, pH 4.7; read-out: Percent Gcase Activation, 1 μM Test Compound
Provide the reported activation at 1 µM of each item.

Cc1nc2c(C(=O)Nc3ccc4c(c3)CCC4)cccc2o1 | 5 to 20%

# batch: return activation at 1 µM for each of the 6 molecules below
1. Cc1cn2ccnc(C(=O)NC3CCCc4ccccc43)c2n1 (stereo not drawn)
2. CCC(NC(=O)c1ccc(C)n2ccnc12)c1ccccc1 (stereo not drawn)
3. CCCCCO[C@H]1CC[C@H](NC(=O)c2nccn3cc(C)nc23)CC1
4. CCC(NC(=O)c1nccn2cc(C)nc12)c1ccccc1 (stereo not drawn)
5. Cc1ccc(C(=O)Nc2ccc3c(c2)CCC3)c2nccn12
6. CCC(NC(=O)c1cccc2oc(C)nc12)c1ccccc1 (stereo not drawn)

1. < 5%
2. > 20%
3. < 5%
4. < 5%
5. > 20%
6. 5 to 20%

----------
# target_under_test: glucocerebrosidase (Gcase) (Homo sapiens, UniProt P04062)
# test: Glucocerebrosidase (Gcase) activation assay, 4-methylumbelliferyl-beta-D-glucopyranoside substrate, with saposin C
# Format: biochemical
# condition_set: 1 μM test compound; 10 nM GCase, 100 nM saposin C, pH 4.7; read-out: Percent Gcase Activation, 1 μM Test Compound
Could you please report measured activation at 1 µM for the items listed next?

Worked examples, 4 molecules total:
Cc1ccc(C(=O)NC(C2CC2)C(F)(F)F)c2nccn12 (centres unmarked) | > 20%
Cc1ccc(C(=O)NC2CCCc3ccccc32)c2nccn12 (centres unmarked) | > 20%
CCCCCO[C@H]1CC[C@H](NC(=O)c2ccc(C)n3ccnc23)CC1 | > 20%
Cc1nc2c(C(=O)NC3CCCc4ccccc43)cccc2o1 (centres unmarked) | > 20%

Now turn to the next molecule.
May I ask what activation at 1 µM has been recorded for `Cc1ccc(C(=O)N[C@@H](C)C2CC2)c2nccn12` ?
5 to 20%
